All values here come from patent US20040024024A1.

Test system: Human recombinant MMP-14 (Homo sapiens, UniProt P50281)
Construct: The catalytic domain enzyme was expressed in E. coli inclusion bodies, solubilized in urea; made in house
Protocol notes: In vitro MMP inhibition, IC50 determination (fluorogenic substrate I)
Type: biochemical
Measurement setup: value outside parentheses
pIC50: −log10 of the molar value.
Property measured: pIC50

{"Smiles input": "O=C(NO)C1(S(=O)(=O)c2ccc(OCCOCc3cccc(F)c3)cc2)CCOCC1", "Property measured": "pIC50", "Val": 5.48}

[P] COC(=O)c1ccc(OCCOc2ccc(S(=O)(=O)C3(C(=O)NO)CCOCC3)cc2)cc1
[Q] O=C(NO)C1(S(=O)(=O)c2ccc(OCCOc3ccccc3)cc2)CCOCC1
[R] O=C(NO)C1(S(=O)(=O)c2ccc(OCCCSc3nc4ccccc4s3)cc2)CCN(CC2CC2)CC1
[S] O=C(NO)C1(S(=O)(=O)c2ccc(OCCCOCc3cccnc3)cc2)CCOCC1
In: Put the entries in order of pIC50, starting with the largest number. Your answer should be the labels, listed in the requested order.
Out: P, Q, S, R
(P: 6.19, Q: 5.60, S: 5.37, R: 5.03)

* * *

Test system: Human recombinant MMP-14 (Homo sapiens, UniProt P50281)
Construct: The catalytic domain enzyme was expressed in E. coli inclusion bodies, solubilized in urea; made in house
Protocol notes: In vitro MMP inhibition, Ki determination (fluorogenic substrate II)
Assay type: biochemical
Measurement setup: value in parentheses
Property measured: Ki

{"Compound": "Cc1ccc(NC(=O)CCCOc2ccc(S(=O)(=O)C3(C(=O)NO)CCOCC3)cc2)cc1I [Example 527]", "Ki": "1.36 µM"}
{"Compound": "O=C(NO)C1(S(=O)(=O)c2ccc(OCCOc3cncnc3)cc2)CCOCC1 [Example 554]", "Ki": "> 10 µM"}
{"Compound": "COCCN1CCC(C(=O)NO)(S(=O)(=O)c2ccc(OCCNC(=O)c3cc4ccccc4o3)cc2)CC1 [Example 553]", "Ki": "2.26 µM"}
{"Compound": "O=C(NO)C1(S(=O)(=O)c2ccc(OCCCc3cccc(-c4ccc(O)cc4)c3)cc2)CCOCC1 [Example 529]", "Ki": "> 10 µM"}
{"Compound": "O=C(NO)C1(S(=O)(=O)c2ccc(OCCCc3cncc(-c4ccc(F)cc4)c3)cc2)CCOCC1 [Example 523]", "Ki": "> 10 µM"}

Continue with the compound presented below.
In: Report Ki for COCCN1CCC(C(=O)NO)(S(=O)(=O)c2ccc(OCCc3cccc(-c4ccc(F)cc4)c3)cc2)CC1 [Example 544]
Out: > 10 µM

* * *

Test system: Human recombinant MMP-2 (Homo sapiens)
Construct: made in house; host or cells: MMP-2-transfected p2AHT2 cells
Sequence (P08253 110-660): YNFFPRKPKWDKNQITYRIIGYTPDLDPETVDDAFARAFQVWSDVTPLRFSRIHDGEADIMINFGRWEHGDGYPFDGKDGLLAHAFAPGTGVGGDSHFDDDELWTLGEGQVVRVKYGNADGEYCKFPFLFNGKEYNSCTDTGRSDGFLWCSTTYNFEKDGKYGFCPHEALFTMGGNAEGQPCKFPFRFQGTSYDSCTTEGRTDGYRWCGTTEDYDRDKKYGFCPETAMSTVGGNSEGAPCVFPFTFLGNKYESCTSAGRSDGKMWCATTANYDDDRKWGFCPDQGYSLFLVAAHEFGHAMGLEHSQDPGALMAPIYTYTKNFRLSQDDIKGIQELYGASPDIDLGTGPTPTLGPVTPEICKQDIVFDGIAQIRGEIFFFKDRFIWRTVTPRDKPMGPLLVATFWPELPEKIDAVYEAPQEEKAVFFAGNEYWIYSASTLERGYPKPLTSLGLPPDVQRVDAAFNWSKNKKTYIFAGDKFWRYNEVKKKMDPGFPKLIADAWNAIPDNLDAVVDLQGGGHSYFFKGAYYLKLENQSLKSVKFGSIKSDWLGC
Protocol notes: In vitro MMP inhibition, IC50 determination (fluorogenic substrate I)
Format: biochemical
Measurement setup: value outside parentheses (Ki in parenthesis)
Property measured: IC50 (nM)

Example entries and their recorded answers appear below.
{"Smiles input": "O=C(NO)C1(S(=O)(=O)c2ccc(OCCCc3nnc(-c4ccc5ccccc5c4)o3)cc2)CCOCC1", "Test system": "Human recombinant MMP-2 (Homo sapiens)", "IC50, nM": 139}
{"Smiles input": "O=C(NO)C1(S(=O)(=O)c2ccc(OCCCSc3nc4ccc(Cl)cc4o3)cc2)CCOCC1", "Test system": "Human recombinant MMP-2 (Homo sapiens)", "IC50, nM": 90}
{"Smiles input": "COc1ccc(C(=O)NCCCCNc2ccc(S(=O)(=O)C3(C(=O)NO)CCOCC3)cc2)cc1", "Test system": "Human recombinant MMP-2 (Homo sapiens)", "IC50, nM": 386}
{"Smiles input": "COc1ccc(OCCCOc2ccc(S(=O)(=O)C3(C(=O)NO)CCN(C4CC4)CC3)cc2)cc1", "Test system": "Human recombinant MMP-2 (Homo sapiens)", "IC50, nM": 6.2}
{"Smiles input": "COc1ccc(SCCCCOc2ccc(S(=O)(=O)C3(C(=O)NO)CCOCC3)cc2)cc1", "Test system": "Human recombinant MMP-2 (Homo sapiens)", "IC50, nM": 6.5}

[A] O=C(NO)C1(S(=O)(=O)c2ccc(OCCCOc3ccc(C(F)(F)F)cc3)cc2)CCN(C2CC2)CC1
[B] COc1ccc(C(=O)NCCCNc2ccc(S(=O)(=O)C3(C(=O)NO)CCOCC3)cc2)cc1
[C] CCOCC(C)(C)COc1ccc(S(=O)(=O)C2(C(=O)NO)CCOCC2)cc1
In: Put the entries in order of IC50, starting with the largest number. Your answer should be the labels, listed in the requested order.
Out: B, C, A
(B: 768 nM, C: 425 nM, A: 5.8 nM)

* * *

Test system: Human recombinant MMP-13 (Homo sapiens, UniProt P45452)
Construct: made in house; host or cells: baculovirus / insect cells
Protocol notes: In vitro MMP inhibition, Ki determination (fluorogenic substrate II)
Type: biochemical
Measurement setup: substrate (II) 4 μM, 1 hr room temperature; apparent Ki, values in parenthesis
Structures can show the parent of a compound that is named as a salt.
Property measured: Ki (pM)

{"Compound": "COCCN1CCC(C(=O)NO)(S(=O)(=O)c2ccc(OCCCc3cccc(-c4ccc(Cl)cc4)c3)cc2)CC1 [Example 50]", "Property measured": "Ki", "Val": 600}
{"Compound": "O=C(NO)C1(S(=O)(=O)c2ccc(OCCCc3nc(-c4ccc(OC(F)(F)F)cc4)no3)cc2)CCOCC1 [Example 31]", "Property measured": "Ki", "Val": 1500}
{"Compound": "O=C(NO)C1(S(=O)(=O)c2ccc(OCCc3cccc(-c4ccccn4)c3)cc2)CCOCC1 [Example 40]", "Property measured": "Ki", "Val": 580}
{"Compound": "COCCN1CCC(C(=O)NO)(S(=O)(=O)c2ccc(OCCCc3nc(-c4ccc(OC(F)(F)F)cc4)no3)cc2)CC1 [Example 42]", "Property measured": "Ki", "Val": 486}

[P] O=C(NO)C1(S(=O)(=O)c2ccc(OCCCn3nnc(-c4ccc(OC(F)(F)F)cc4)n3)cc2)CCN(CC2CC2)CC1 [Example 53]
[Q] O=C(NO)C1(S(=O)(=O)c2ccc(OCCCc3nc(-c4ccc(OC(F)(F)F)cc4)no3)cc2)CCN(C2CC2)CC1 [Example 51, Hydrochloride]
In: Parameter metric = Ki. Return the lower-valued option from P and Q . Kindly state the label of the option you pick.
Out: P
(P: 662 pM, Q: 1700 pM)

* * *

Test system: Human recombinant MMP-2 (Homo sapiens, UniProt P08253)
Construct: made in house; host or cells: MMP-2-transfected p2AHT2 cells
Protocol notes: In vitro MMP inhibition, IC50 determination (fluorogenic substrate I)
Format: biochemical
Measurement setup: value outside parentheses (Ki in parenthesis)
Protocol: Several hydroxamates and salts thereof were analyzed in in vitro assays to determine their ability to inhibit the MMP cleavage of peptide substrates. Inhibition (Ki) and IC50 constants were calculated from the assayed hydroxamate-MMP interactions. […] The assays from which the IC50 determinations were made were performed as follows. […] The assayed hydroxamate samples were, incubated in Microfluorrm White Plates (Dynatech, Chantilly, VA) and analyzed on a Perkin Elmer L550 plate reader (Norwalk, Conn.). […]
Property measured: IC50 (nM)

Example entries and their recorded answers appear below.
{"Smiles input": "O=C(NO)C1(S(=O)(=O)c2ccc(OCCCSc3nc4c(Cl)cc(Cl)cc4o3)cc2)CCOCC1", "Measurement units": "nM", "IC50": 285}
{"Smiles input": "Cc1cc(-c2nnc(CCCOc3ccc(S(=O)(=O)C4(C(=O)NO)CCOCC4)cc3)o2)ccc1OC(C)C", "Measurement units": "nM", "IC50": 100}

[A] O=C(NCCCOc1ccc(S(=O)(=O)C2(C(=O)NO)CCOCC2)cc1)c1ccc2ccccc2c1O
[B] O=C(c1ccc(OC(F)(F)F)cc1)N1CC[C@@H](Oc2ccc(S(=O)(=O)C3(C(=O)NO)CCOCC3)cc2)C1
In: Parameter metric = IC50. Return the lower-valued option from A and B . Kindly state the label of the option you pick.
Out: A

[I] CN(C)c1ccc(C(=O)NCCCOc2ccc(S(=O)(=O)C3(C(=O)NO)CCN(C4CC4)CC3)cc2)cc1
[II] COCC(C)(C)COc1ccc(S(=O)(=O)C2(C(=O)NO)CCOCC2)cc1
[III] O=C(NO)C1(S(=O)(=O)c2ccc(OCCCc3nc4cc5ccccc5cc4o3)cc2)CCOCC1
In: Order by IC50, ascending. Your answer should be the labels, listed in the requested order.
Out: III, II, I
(III: 18.1 nM, II: 900 nM, I: 2200 nM)
